Measured Ratio, listed per entry.
# protocol.text: Selectivity ratio of drug concentration in liver in CD-1 mouse at 10 mg/kg, po measured for 12 hrs to EC90 for antiviral activity against HBV infected in human HepG2.2.15 cells assessed as reduction in HBsAg level
# Type: ADME, organism-based
# condition.details: in vivo
Give the figure by itself; no unit, no explanation.

COc1cc(OC(F)F)c2nc3c(n2c1)C[C@@H](C(C)(C)C)c1cc(C(=O)O)c(=O)[nH]c1-3
1675
CC(C)(C)[C@@H]1Cc2c(nc3c(C(F)(F)F)cc(C4CC4)cn23)-c2[nH]c(=O)c(C(=O)O)cc21
12480
CC(C)(C)[C@@H]1Cc2c(nc3c(C(F)(F)F)cccn23)-c2[nH]c(=O)c(C(=O)O)cc21
438

Next, consider the following molecule.
Task: Provide one value: measured Ratio of COCCCOc1cc2c(nc1OC)-c1cc(=O)c(C(=O)O)cn1[C@H](C(C)C)C2
Output: 191

====

# protocol.text: Total AUC (0 to 24 hrs) in Beagle dog at 15 mg/kg, po qd measured after 91 days
# Format: ADME, organism-based, Canis lupus familiaris
# condition.details: in vivo, time 91 day
measured.quantity: AUC at 2184 h (µg·h/mL)
Numbers only here, please. The scale is µg·h/mL.

Task: Provide one value: measured AUC at 2184 h of COCCCOc1cc2c(nc1OC)-c1cc(=O)c(C(=O)O)cn1[C@H](C(C)C)C2
Output: 30.6

====

# protocol.text: Ratio of total drug concentration in liver to plasma in CD-1 mouse at 0.2 mg/kg, po measured for 24 hrs by LC-MS/MS analysis
# Type: ADME, organism-based
# condition.details: CD-1, mouse, liver and plasma
measured.quantity: Kp at 24 h
Give the figure by itself; no unit, no explanation.

# annotated cases, reported Kp at 24 h shown
CC(C)(C)[C@@H]1Cc2c(nc3c(OC(F)F)cc(F)cn23)-c2[nH]c(=O)c(C(=O)O)cc21
101
COc1cc(OC(F)F)c2nc3c(n2c1)C[C@@H](C(C)(C)C)c1cc(C(=O)O)c(=O)[nH]c1-3
116

Next, consider the following compound.
Task: Provide one value: measured Kp at 24 h of CC(C)(C)[C@@H]1Cc2c(nc3c(C(F)(F)F)cc(C4CC4)cn23)-c2[nH]c(=O)c(C(=O)O)cc21
Output: 97

====

Target protein (sequence): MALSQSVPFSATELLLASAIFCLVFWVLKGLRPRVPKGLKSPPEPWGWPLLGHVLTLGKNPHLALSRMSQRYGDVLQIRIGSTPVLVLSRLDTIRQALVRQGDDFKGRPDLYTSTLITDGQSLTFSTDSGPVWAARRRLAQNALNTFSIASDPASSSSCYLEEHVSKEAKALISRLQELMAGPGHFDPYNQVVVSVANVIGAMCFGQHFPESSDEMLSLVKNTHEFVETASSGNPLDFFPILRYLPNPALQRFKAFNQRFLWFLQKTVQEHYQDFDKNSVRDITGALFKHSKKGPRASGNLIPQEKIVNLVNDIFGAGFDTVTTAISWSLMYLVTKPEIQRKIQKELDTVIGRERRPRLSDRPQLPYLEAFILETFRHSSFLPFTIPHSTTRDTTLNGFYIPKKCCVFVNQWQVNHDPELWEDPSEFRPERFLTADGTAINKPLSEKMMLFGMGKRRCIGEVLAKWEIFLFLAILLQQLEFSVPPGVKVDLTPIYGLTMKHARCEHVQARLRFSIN
pIC50: −log10 of the molar value.
Measured pIC50, listed per entry.

COc1cc(OC(F)F)c2nc3c(n2c1)C[C@@H](C(C)(C)C)c1cc(C(=O)O)c(=O)[nH]c1-3
< 4.60

Next, consider the following compound.
Task: Provide one value: measured pIC50 of CC(C)(C)[C@@H]1Cc2c(nc3c(C(F)(F)F)cc(C4CC4)cn23)-c2[nH]c(=O)c(C(=O)O)cc21
Output: < 4.60
